Cited source for all entries: the supplement of paper PMC10899765

tested on: MCF10A; assay: one-nucleolus phenotype percent effect (relative to siNT 0% and siNOL11 100%); higher = more cells with one nucleolus (ribosome biogenesis inhibition); details: 20 nM; 72 h
Label True for high-side one-nucleolus phenotype percent effect (at or above -10%) and False for low-side one-nucleolus phenotype percent effect (below it).

Exercise: Form field: one-nucleolus phenotype percent effect at least -10%? Entry: UGAGGGAGUGGAUUGUAUG [hsa-miR-6130]
Solution: True

Exercise: Form field: one-nucleolus phenotype percent effect at least -10%? Entry: AAAAGUAAUUGCGGUUUUUGC [hsa-miR-548au-5p]
Solution: False

* * *

test system: MCF10A; assay: one-nucleolus phenotype percent effect (relative to siNT 0% and siNOL11 100%); higher = more cells with one nucleolus (ribosome biogenesis inhibition); settings: 20 nM; 72 h
Binned one-nucleolus phenotype percent effect; ranges: lower level (below -10%), middle level (-10% to below 40%), upper level (40% or more)

// below: answered sequences
| input sequence | target under test | class label |
| --- | --- | --- |
| CUAAGAAGUUGACUGAAG [hsa-miR-3653] | MCF10A | upper level |
| AGUGGGAGGCCAGGGCACGGCA [hsa-miR-1233-1-5p] | MCF10A | middle level |
| CGUGUCUUCUGGCUUGAU [hsa-miR-4711-3p] | MCF10A | upper level |
| UGAAGCGCCUGUGCUCUGCCGAGA [hsa-miR-7706] | MCF10A | lower level |

Exercise: The entry to classify is GGCCACUGAGUCAGCACCA [hsa-miR-4252] ; which class holds it?
Solution: middle level

Exercise: The entry to classify is AGAGUUGAGUCUGGACGUCCCG [hsa-miR-219-1-3p] ; which class holds it?
Solution: lower level

Exercise: The entry to classify is ACAGCAGGCACAGACAGGCAGU [hsa-miR-214-3p] ; which class holds it?
Solution: middle level

Exercise: The entry to classify is AUGUCCAUAUUAUGGGUUAGU [hsa-miR-3912-5p] ; which class holds it?
Solution: lower level

Exercise: The entry to classify is GUAGGGGAGGUUGGGCCAGGGA [hsa-miR-6824-5p] ; which class holds it?
Solution: lower level

Exercise: The entry to classify is UGUCCUCUGUUCCUCAG [hsa-miR-6852-3p] ; which class holds it?
Solution: upper level

Exercise: The entry to classify is CACCAUGGACGGUUUACC [hsa-miR-7153-3p] ; which class holds it?
Solution: upper level
